Cited source for all entries: ChEMBL document CHEMBL4689842

# reported Population Membrane Permeable-Phenotype (%); entries follow
- Test system: U2OS
- assay-overview: Multiplex assay against U2OS
- Type: toxicity, cell-based
- condition-parameters: human, 24 h, 1 µM, compound concentration 1 uM, replicate 2
Reply with just the number (in %).

> print(dat)
                                   molecule  unit.descriptor  readout.value
1  CC(C)[C@H](CO)Nc1nc(Nc2cccc(Cl)c2)c2ncn(C(C)C)c2n1                %              5

Quote Population Membrane Permeable-Phenotype (%) with test system U2OS for `Cc1c(Nc2ccc(S(=O)(=O)N3CCN(C)CC3)cc2F)nc2ccc(Nc3cnn(C4CC4)c3)cn2c1=O`
19

Given `N#CCNC(=O)c1ccc(-c2ccnc(Nc3ccc(N4CCOCC4)cc3)n2)cc1` , report its Population Membrane Permeable-Phenotype (%) on U2OS.
6

====

- Tested on: HEK-293T
- assay-overview: Incucyte cell viability with HEK293T; further: filed as whole numbers so only -1 and 0 and 1 occur
- Format: toxicity, cell-based
- condition-parameters: human, 12 h, 10 µM, compound concentration 10 uM, replicate number 1, timepoint 12 hours
observed-property: Growth Rate
The answer should be a number; do not append a unit.

> print(dat)
                                   compound  readout.value
1  C=CC(=O)Nc1cc(-n2c(=O)ccc3cnc4ccc(-c5ccc(NS(C)(=O)=O)cc5)cc4c32)ccc1C              0
2  CC(C)(Cc1ccccc1)NCC(O)c1ccc(O)c(NS(C)(=O)=O)c1.Cl (stereo not given) [ZINTEROL HYDROCHLORIDE]              1
3  Cc1cc(OCC(=O)O)cc(C)c1Cc1ccc(O)c(C(C)C)c1              0
4  Cc1cc2c(cc1-c1cc(/C=C/C(=O)O)ccc1O)C(C)(C)CCC2(C)C              1

Fill in Growth Rate for record `C/C(=N\NC(=O)[C@@H]1C(=O)NC[C@H]1c1ccccc1)c1cccc(Br)c1`
0

====

Population Apoptotic (%) listing for selected compounds.
- System: Fibroblast
- assay-overview: Multiplex assay against human fibroblast
- Type: toxicity, cell-based
- condition-parameters: 24 h, 10 µM, compound concentration 10 uM, replicate 2
Express it in %; write the number only.

Field: example entries. Status: answers known.
> print(dat)
                            compound.smiles  readout.value
1  C[C@@H](Oc1cc(-n2cnc3ccc(CN4CCN(C)CC4)cc32)sc1C(N)=O)c1ccccc1C(F)(F)F             82
2  CCCCN(CC)c1nc(C)nc2c1c(C)cn2-c1c(C)cc(C)cc1C.Cl             25
3  NC(=O)c1ccc2nc(-c3ccc(C4(N)CCC4)cc3)c(-c3ccccc3)n2n1             28
4  CCOc1ccn(-c2ccc(F)cc2)c(=O)c1C(=O)Nc1ccc(Oc2ccnc(N)c2Cl)c(F)c1             50

Using the record for `CC(C)c1cc(Nc2nc(N3CCC[C@H](N)C3)ncc2C(N)=O)cc(C(C)C)n1` , state its measured Population Apoptotic (%).
84

Determine from records and report Population Apoptotic (%) for `N#Cc1cccc(C(=O)Nc2cc(-c3ccccc3)nn2-c2ccccc2)c1`
42

====

- Tested on: U2OS
- assay-overview: Multiplex assay against U2OS
- Type: toxicity, cell-based
- condition-parameters: human, 24 h, 1 µM, compound concentration 1 uM, replicate 1
# key: entry, value: Population Mitochondria Different-Phenotype (%)
Put down the number, then write its unit next to it.

> print(dat)
                                   compound  test.system  readout.value
1  CC(C)[C@H](CO)Nc1nc(Nc2cccc(Cl)c2)c2ncn(C(C)C)c2n1         U2OS             7%
2  N#CCNC(=O)c1ccc(-c2ccnc(Nc3ccc(N4CCOCC4)cc3)n2)cc1         U2OS             9%
3  Cl.NC[C@@H]1O[C@H](C23CC4CC(CC(C4)C2)C3)Cc2c1ccc(O)c2O         U2OS             3%
4  CC(/C=C1\SC(=S)N(CCCC(=O)Nc2ccc(C(=O)O)c(O)c2)C1=O)=C\c1ccccc1         U2OS             9%
5  Oc1cccc(-c2nc(N3CCOCC3)c3oc4ncccc4c3n2)c1         U2OS             4%

Give the reported value of Population Mitochondria Different-Phenotype (%) for this record: `CC(C)c1cc(Nc2nc(N3CCC[C@H](N)C3)ncc2C(N)=O)cc(C(C)C)n1`
90%

Return Population Mitochondria Different-Phenotype (%) (reported value) for this compound: CN1C(=O)[C@@H](NC(=O)c2cc3ccccc3[nH]2)N=C(c2ccccc2)c2ccccc21 [DEVAZEPIDE]
14%

Provide only the value of recorded Population Mitochondria Different-Phenotype (%) for CCCCCNC(=N)N/N=C/c1c[nH]c2ccc(OC)cc12.O=C(O)/C=C\C(=O)O [TEGASEROD MALEATE]
13%

Using known records, supply Population Mitochondria Different-Phenotype (%) for `CC[C@H](Nc1ncnc2[nH]cnc12)c1nc2cccc(F)c2c(=O)n1-c1ccccc1`
9%

Please indicate Population Mitochondria Different-Phenotype (%) recorded for `Cc1ccc(NC(=O)Nc2cc(C(F)(F)F)ccc2F)cc1Nc1ccc2c(c1)NC(=O)/C2=C\c1ccc[nH]1`
11%

Supply measured Population Mitochondria Different-Phenotype (%) of `CC[C@@H]1C(=O)N(C)c2cnc(Nc3ccc(C(=O)NC4CCN(C)CC4)cc3OC)nc2N1C1CCCC1` in your reply.
29%

Respond only with Population Mitochondria Different-Phenotype (%) recorded for `N#Cc1cccc(C(=O)Nc2cc(-c3ccccc3)nn2-c2ccccc2)c1`
5%

Specify reported Population Mitochondria Different-Phenotype (%) for the compound shown: `Cc1c(Nc2ccc(S(=O)(=O)N3CCN(C)CC3)cc2F)nc2ccc(Nc3cnn(C4CC4)c3)cn2c1=O`
15%

// Input: `CCCc1cc(C)[nH]c(=O)c1CNC(=O)c1cc(-c2ccc(N3CCN(C(C)C)CC3)nc2)cc2c1cnn2C(C)C` . Output its Population Mitochondria Different-Phenotype (%) only.
89%

Find the measured Population Mitochondria Different-Phenotype (%) of Cl.Cn1c2c(c3ccc(Cl)c(Cl)c31)C(C#N)C1(CCNCC1)NC2=O (stereo unspecified) and report it.
13%

Provide measured Population Mitochondria Different-Phenotype (%) value, entry: CC(Cc1ccc(O)c(O)c1)C(C)Cc1ccc(O)c(O)c1 (stereo unspecified) [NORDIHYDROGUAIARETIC ACID]
7%

Specify measured Population Mitochondria Different-Phenotype (%) for `NC(=O)c1ccc2nc(-c3ccc(C4(N)CCC4)cc3)c(-c3ccccc3)n2n1` .
18%

Entry `CCOc1ccn(-c2ccc(F)cc2)c(=O)c1C(=O)Nc1ccc(Oc2ccnc(N)c2Cl)c(F)c1` needs its Population Mitochondria Different-Phenotype (%) filled in; supply it.
23%

Give a short answer stating reported Population Mitochondria Different-Phenotype (%) for `C[C@@H](Oc1cc(-n2cnc3ccc(CN4CCN(C)CC4)cc32)sc1C(N)=O)c1ccccc1C(F)(F)F` .
65%
